test system: E. coli TESEC Mtb DapB; assay: growth (OD600 after 10 h); higher = more growth (less inhibition); conditions: arabinose induction (level): High; compound 0.1 mM; raw OD600 reference: median of DMSO wells […], cell-free background 0.041
Counter-ions that a name gives are not always drawn.
The following molecules are listed with their measured growth values.
Please give the numeric answer without any surrounding text.

Here's what some known entries look like.
| molecule | recorded_result |
| --- | --- |
| CC(C)(C)NC[C@H](O)COc1ccccc1C1CCCC1 [Penbutolol sulfate] | 0.184 |
| CC(C)(C#N)c1cc(Cn2cncn2)cc(C(C)(C)C#N)c1 [Anastrozole] | 0.194 |
| COc1ccc(-c2ccc(=N)n(CCCC(=O)O)n2)cc1 [Gabazine bromide] | 0.206 |
| Cc1cnc(C(=O)NCCc2ccc(S(=O)(=O)NC(=O)NC3CCCCC3)cc2)cn1 [Glipizide] | 0.199 |
| Cc1cc(=O)oc2cc(O)ccc12 [Hymecromone] | 0.198 |
| NS(=O)(=O)c1cc(C(=O)O)c(NCc2ccco2)cc1Cl [Furosemide] | 0.181 |
| COc1ccc(C[C@@H]2c3cc(OC)c(OC)cc3CC[N@+]2(C)CCC(=O)OCCCCCOC(=O)CC[N@@+]2(C)CCc3cc(OC)c(OC)cc3[C@H]2Cc2ccc(OC)c(OC)c2)cc1OC [Cisatracurium besylate] | 0.168 |
| O=c1oc2ccccc2c(O)c1Cc1c(O)c2ccccc2oc1=O [Dicumarol] | 0.18 |
| C[C@](N)(Cc1ccc(O)c(O)c1)C(=O)O [Methyldopa (L,-)] | 0.187 |
| NC(=O)OCC(COC(N)=O)c1ccccc1 [Felbamate] | 0.224 |

Exam item: Reported growth, molecule COC(=O)C1=C(C)NC(C)=C(C(=O)OC2CCCN(Cc3ccccc3)C2)C1c1cccc([N+](=O)[O-])c1 (centres undefined) [Benidipine hydrochloride] : ____
Marked response: 0.17

Exam item: What value of growth has been recorded for this entry: NS(=O)(=O)c1cc(Cl)c(Cl)c(S(N)(=O)=O)c1 [Dichlorphenamide]
Marked response: 0.213

Exam item: # growth lookup, item CSc1nc2cc(Cl)c(Oc3cccc(Cl)c3Cl)cc2[nH]1 [Triclabendazole]
Marked response: 0.0562

====

system: E. coli TESEC Mtb Alr; assay: growth (OD600 after 10 h); higher = more growth (less inhibition); conditions: arabinose 10000000 nM; compound 0.1 mM; raw OD600 reference: median of DMSO wells 0.146, cell-free background 0.041
Counter-ions that a name gives are not always drawn.
Catalogue of compounds with associated growth
Lab note: write the figure by itself, no unit.

Worked examples follow.
| compound | target_or_system | growth |
| --- | --- | --- |
| C[C@H]1O[C@H](O[C@H]2[C@H](O)[C@@H](O)[C@@H](O[C@@H]([C@H](O)[C@@H](O)C=O)[C@H](O)CO)O[C@@H]2CO)[C@H](O)[C@@H](O)[C@@H]1N[C@H]1C=C(CO)[C@@H](O)[C@H](O)[C@H]1O [Acarbose] | E. coli TESEC Mtb Alr | 0.145 |
| CC(C)(C)NC(=O)[C@@H]1CN(Cc2cccnc2)CCN1C[C@@H](O)C[C@@H](Cc1ccccc1)C(=O)N[C@H]1c2ccccc2C[C@H]1O [Indinavir sulfate] | E. coli TESEC Mtb Alr | 0.139 |

--- query ---
Exam item: Item under review: CN1[C@@H]2CC[C@H]1C[C@@H](OC(c1ccccc1)c1ccccc1)C2 [Benztropine mesylate] . Reported growth?
Marked response: 0.166
